Reference source for all entries: patent US11459332B2

biological target: AFAP1-TRKB (Homo sapiens, UniProt Q16620); construct: AFAP1 (fusion partner, N-terminal part); the other entry of the earlier key: AFAP1 (Q8N556, Actin filament-associated protein 1); assay: Engineered Ba/F3 cell proliferation inhibition (MTS), AFAP1-TRKB; settings: Ba/F3-AFAP1-TRKB cells, 72 h
Sequence (Q16620 538-822 limits assumed): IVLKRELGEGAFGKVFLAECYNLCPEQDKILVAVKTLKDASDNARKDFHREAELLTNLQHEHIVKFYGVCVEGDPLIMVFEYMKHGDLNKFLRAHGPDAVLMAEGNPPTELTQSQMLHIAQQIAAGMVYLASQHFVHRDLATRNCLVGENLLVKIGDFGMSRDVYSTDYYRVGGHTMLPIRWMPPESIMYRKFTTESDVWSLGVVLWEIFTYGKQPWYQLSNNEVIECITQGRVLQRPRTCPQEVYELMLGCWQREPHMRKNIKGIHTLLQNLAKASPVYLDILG
test readout: IC50 (nM)
Numbers only, in nM.

Input: Return reported IC50. Input compound: `O=C(Nc1cnn2ccc(N3CC[C@H]4C[C@]43c3cc(F)ccc3F)nc12)N1CC[C@H](O)C1`
Output: 14

* * *

target: ETV6-TRKC (Homo sapiens); construct: ETV6 (fusion partner, N-terminal part); the other entry of the earlier key: ETV6 (P41212, Transcription factor ETV6); test: Engineered Ba/F3 cell proliferation inhibition (MTS), ETV6-TRKC; conditions: Ba/F3-ETV6-TRKC cells, 72 h
Sequence (Q16288 530-825 isoform Q16288-3 limits assumed): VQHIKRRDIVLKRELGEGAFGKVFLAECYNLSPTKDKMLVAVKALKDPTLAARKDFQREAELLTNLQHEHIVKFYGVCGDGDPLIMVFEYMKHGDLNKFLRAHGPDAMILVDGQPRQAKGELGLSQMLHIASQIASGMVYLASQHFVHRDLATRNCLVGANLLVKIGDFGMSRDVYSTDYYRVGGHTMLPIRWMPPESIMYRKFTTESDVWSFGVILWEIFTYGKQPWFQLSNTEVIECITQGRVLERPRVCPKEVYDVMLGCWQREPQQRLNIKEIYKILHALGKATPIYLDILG
test readout: pIC50
Numbers only, as −log10 of the molar value.

Reference set (2 entries):
compound="O=C1c2ccccc2CN1c1cnn2ccc(N3CC[C@H]4C[C@]43c3cc(F)ccc3F)nc12 [Example 28]" test_readout=pIC50 result_number=8.70
compound="O=C(Nc1cnn2ccc(N3CC[C@H]4C[C@]43c3cc(F)ccc3F)nc12)N1CCC(F)C1 (stereo in doubt) [Example 10]" test_readout=pIC50 result_number=8.70

Kindly give each listed record's pIC50.
1. O=C(Nc1cnn2ccc(N3CC[C@H]4C[C@]43c3cc(F)ccc3Cl)nc12)N1CC[C@@H](O)C1 [Example 3]
2. O=C(Nc1cnn2ccc(N3CC[C@H]4C[C@]43c3cc(F)ccc3F)nc12)N1CC[C@H](O)C1 [Example 1]
3. O=C(Nc1cnn2ccc(N3CC[C@H]4C[C@]43c3cc(F)ccc3Cl)nc12)N1CC[C@H](O)C1 [Example 2]
4. O=C(Nc1cnn2ccc(N3CC[C@H]4C[C@]43c3cc(F)ccc3F)nc12)c1ccccn1 [Example 15]
5. O=C(Nc1cnn2ccc(N3CC[C@H]4C[C@]43c3cc(F)ccc3F)nc12)c1ccc(Cl)cn1 [Example 24]

Output:
1: 7.77; 2: 9.00; 3: 8.15; 4: 9.00; 5: 7.80
